Entry source: ChEMBL document CHEMBL5625195

Can you tell me CC50 at 48 h for the items I'm about to list?
experiment: Cytotoxicity against mouse AML12 cells assessed as reduction in cell viability incubated for 48 hrs by MTT assay; assay type: toxicity, cell-based; settings: AML12 cells

Problem: For the compound O=S(=O)(Nc1ccc(F)c(Cl)c1)N1CCNc2ccccc21 , give its reported CC50 at 48 h.
Result: > 100 µM

Problem: Quickly give me recorded CC50 at 48 h for O=C(Nc1ccc(F)c(Cl)c1)N1CC(CN2CCOCC2)Nc2ccccc21 (stereo not given)
Result: > 20 µM

Problem: # return recorded CC50 at 48 h for entry O=C(Nc1ccccc1)N1CCN(C(=O)Nc2ccc(F)c(Cl)c2)c2ccccc21
Result: > 12.5 µM

Problem: Name the recorded CC50 at 48 h of the compound listed here: O=C(Nc1ccc(F)c(Cl)c1)N1CCN[C@H]2CCCC[C@H]21 (relative stereo)
Result: > 100 µM

Problem: Check the records and state CC50 at 48 h for O=C(Nc1ccc(F)c(Cl)c1)N1c2ccccc2NCC1CN1CCOCC1 (stereo not given)
Result: > 40 µM

Problem: Read the entry CC1CNc2ccccc2N1C(=O)Nc1ccc(F)c(Cl)c1 (stereo not given) and write its reported CC50 at 48 h.
Result: > 100 µM

Problem: // Input: O=C(Nc1ccc(F)c(C(F)(F)F)c1)N1c2ccccc2NCC1CN1CCC(F)(F)CC1 (stereo not given) . Output its CC50 at 48 h only.
Result: 31.4 µM

Problem: # return recorded CC50 at 48 h for input O=C(Nc1ccc(F)c(Cl)c1)N1CCc2cccnc21
Result: > 25 µM

Problem: Given N#Cc1cc(NC(=O)N2CCNc3ccccc32)ccc1F , respond with its CC50 at 48 h.
Result: > 20 µM

Problem: Supply recorded CC50 at 48 h for O=C(Nc1ccc(F)c(Cl)c1)N1CCN(C(=O)Nc2cc(Cl)c(F)cc2F)c2ccccc21 here.
Result: > 20 µM

###

assay: Cytotoxicity against mouse AML12 cells assessed as reduction in cell viability incubated for 48 hrs by MTT assay; assay type: toxicity, cell-based; settings: AML12 cells
measurement-kind: CC50 at 48 h

Problem: Return value of CC50 at 48 h for input O=C(Nc1ccc(F)c(Cl)c1)C1CCNc2ccccc21 (racemic) , no commentary.
Result: > 100 µM

Problem: Indicate the recorded CC50 at 48 h value for this molecule: O=C(Nc1ccc(F)c(C(F)(F)F)c1)N1CCNc2ccccc21
Result: > 20 µM

Problem: Please give measured CC50 at 48 h of the following entry: CC1(C)CCN(CC2CNc3ccccc3N2C(=O)Nc2ccc(F)c(Cl)c2)CC1 (stereo unspecified)
Result: > 40 µM

Problem: Name the recorded CC50 at 48 h of the molecule listed here: O=C(Nc1ccc(F)c(Cl)c1)N1CCN(C(=O)Nc2ccc(F)c(Cl)c2)[C@H]2CCCC[C@H]21
Result: > 100 µM

Problem: Input O=C(Nc1cccnc1)N1CCN(C(=O)Nc2ccc(F)c(Cl)c2)c2ccccc21 , output reported CC50 at 48 h.
Result: > 100 µM

Problem: Answer with the recorded CC50 at 48 h for the molecule listed here: O=C(Nc1ccc(F)c(Cl)c1)N1CC(CN2CCC(F)(F)C2)Nc2ccccc21 (stereo unspecified)
Result: > 100 µM

Problem: Answer with reported CC50 at 48 h of O=C(Nc1cccc(Cl)c1)N1CCNc2ccccc21
Result: > 100 µM

Problem: Answer with reported CC50 at 48 h of [N-]=[N+]=Nc1ccc(NC(=O)N2CCNc3ccccc32)cc1Cl
Result: > 100 µM

Problem: Tell me CC50 at 48 h reported for Cc1cc(NC(=O)N2c3ccccc3NCC2CN2CCC(F)(F)CC2)ccc1F (stereo unspecified)
Result: > 50 µM

Problem: Determine from records and report CC50 at 48 h for O=C(Nc1ccc(F)c(Cl)c1)N1c2ccccc2NCC1c1ccccc1 (stereo unspecified)
Result: > 50 µM

Problem: Check the records and state CC50 at 48 h for O=C(Nc1ccc(F)c(Cl)c1)N1CC(CN2CCC(F)(F)CC2)N(C(=O)Nc2ccc(F)c(Cl)c2)c2ccccc21 (stereo unspecified)
Result: > 100 µM
